src = paper PMC6039436

For each of the molecules below, state its Radioactivity in Brain.
# METHOD_DESCRIPTION: Biodistribution in ddY mice
# Assay type: in vivo
# CONDITION_SET: i.v. co-injection, 10 min
Marks after values point to notes of the source that are not given here.

[[record]]
molecule = "COCCOc1ccc2c(c1)ncn2-c1ccc2c([77Br])ccc(N3CCC(N)CC3)c2n1 [[^77Br]2]"
result_value = "0.12 (0.01) %injected dose/gram tissue"


Attention now turns to another entry.
Challenge: # input molecule: COCCOc1ccc2c(c1)ncn2-c1ccc2cccc(N3CCC(NC(=O)c4cccc([77Br])c4)CC3)c2n1 [[^77Br]3] ; wanted: its Radioactivity in Brain
Response given: 0.43 (0.02) %injected dose/gram tissue
